Molecular target: Protein cereblon/Cyclin-dependent kinase 6 (Homo sapiens) (UniProt Q00534+Q96SW2)
Sequence (Q00534 whole entry, looked up): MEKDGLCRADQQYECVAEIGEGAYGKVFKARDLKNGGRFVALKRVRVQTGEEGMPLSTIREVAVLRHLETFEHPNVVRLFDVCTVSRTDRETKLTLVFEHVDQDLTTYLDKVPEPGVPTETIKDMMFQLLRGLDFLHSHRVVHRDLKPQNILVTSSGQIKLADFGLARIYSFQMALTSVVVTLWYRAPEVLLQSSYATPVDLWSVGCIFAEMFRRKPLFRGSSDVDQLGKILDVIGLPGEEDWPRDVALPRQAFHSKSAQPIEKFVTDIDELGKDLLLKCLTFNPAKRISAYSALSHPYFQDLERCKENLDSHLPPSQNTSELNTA
Sequence (Q96SW2 whole entry, looked up): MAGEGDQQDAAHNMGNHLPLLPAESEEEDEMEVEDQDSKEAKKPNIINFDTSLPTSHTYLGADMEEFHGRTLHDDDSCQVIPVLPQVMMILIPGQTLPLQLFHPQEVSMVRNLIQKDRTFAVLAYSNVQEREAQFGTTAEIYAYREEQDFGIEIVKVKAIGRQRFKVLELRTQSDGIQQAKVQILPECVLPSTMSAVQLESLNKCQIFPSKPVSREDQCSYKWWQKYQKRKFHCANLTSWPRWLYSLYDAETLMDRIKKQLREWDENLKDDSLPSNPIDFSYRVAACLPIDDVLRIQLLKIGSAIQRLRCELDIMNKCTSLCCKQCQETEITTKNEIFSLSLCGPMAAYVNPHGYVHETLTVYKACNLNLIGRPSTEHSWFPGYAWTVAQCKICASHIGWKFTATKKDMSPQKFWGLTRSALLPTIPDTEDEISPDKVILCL
Test: PROTAC activity at CRBN/CDK6 in human NCI-H3122 cells assessed as reduction in CDK6 protein level at 1 to 10 uM incubated for 24 hrs by Western blot analysis
Assay type: cell-based
Settings: dose 1-10 µM
Activity calls are given as the source filed them. No cut-off for these calls is given here.
ATTRIBUTE MEASURED: Activity

CC(=O)c1c(C)c2cnc(Nc3ccc(N4CCN(CC(=O)NCCSSCCN(CC(=O)NCCNc5cccc6c5C(=O)N(C5CCC(=O)NC5=O)C6=O)C(=O)CCC(=O)N5CCC(c6cc(OC(C)C)c(Nc7ncc(Cl)c(Nc8ccccc8S(=O)(=O)C(C)C)n7)cc6C)CC5)CC4)cn3)nc2n(C2CCCC2)c1=O (configuration not stated) :: inactive
CC(=O)c1c(C)c2cnc(Nc3ccc(N4CCN(CC(=O)NCCSSCCN(CC(=O)Nc5cccc6c5C(=O)N(C5CCC(=O)NC5=O)C6=O)C(=O)CCCCCCCCC(=O)N5CCC(c6cc(OC(C)C)c(Nc7ncc(Cl)c(Nc8ccccc8S(=O)(=O)C(C)C)n7)cc6C)CC5)CC4)cn3)nc2n(C2CCCC2)c1=O (configuration not stated) :: inactive

* * *

Test: Cytotoxicity against human L02 cells assessed as inhibition of cell growth incubated for 3 to 5 days by MTT assay
Assay type: toxicity, cell-based
pIC50 listing for selected molecules.
// pIC50 here means minus log10 of the molar concentration (mol/L)

Cc1cc(Nc2ncc(Cl)c(Nc3ccccc3S(=O)(=O)C(C)C)n2)c(OC(C)C)cc1C1CCNCC1 [CERITINIB] :: 5.45
CC(=O)c1c(C)c2cnc(Nc3ccc(N4CCNCC4)cn3)nc2n(C2CCCC2)c1=O [PALBOCICLIB] :: 4.47
CC(=O)c1c(C)c2cnc(Nc3ccc(N4CCN(CC(=O)NCCSSCCN(CC(=O)Nc5cccc6c5C(=O)N(C5CCC(=O)NC5=O)C6=O)C(=O)CCCCC(=O)N5CCC(c6cc(OC(C)C)c(Nc7ncc(Cl)c(Nc8ccccc8S(=O)(=O)C(C)C)n7)cc6C)CC5)CC4)cn3)nc2n(C2CCCC2)c1=O (centres undefined) :: 4.35

*Q* What measured pIC50 goes with CC(=O)c1c(C)c2cnc(Nc3ccc(N4CCN(CC(=O)NCCSSCCN(CC(=O)NCCNc5cccc6c5C(=O)N(C5CCC(=O)NC5=O)C6=O)C(=O)CCCCCCC(=O)N5CCC(c6cc(OC(C)C)c(Nc7ncc(Cl)c(Nc8ccccc8S(=O)(=O)C(C)C)n7)cc6C)CC5)CC4)cn3)nc2n(C2CCCC2)c1=O (centres undefined) ?
*A* 4.26

* * *

Molecular target: Protein cereblon/Cyclin-dependent kinase 6 (Homo sapiens) (UniProt Q00534+Q96SW2)
Experiment: PROTAC activity at CRBN/CDK6 in human NCI-H3122 cells assessed as reduction in CDK6 protein level at 1 to 10 uM incubated for 24 hrs by Western blot analysis
Assay type: cell-based
Details: dose 1-10 µM
Active and inactive are the calls of the source. No cut-off for these calls is given here.
ATTRIBUTE MEASURED: Activity

CC(=O)c1c(C)c2cnc(Nc3ccc(N4CCN(CC(=O)NCCSSCCN(CC(=O)NCCNc5cccc6c5C(=O)N(C5CCC(=O)NC5=O)C6=O)C(=O)CCCCC(=O)N5CCC(c6cc(OC(C)C)c(Nc7ncc(Cl)c(Nc8ccccc8S(=O)(=O)C(C)C)n7)cc6C)CC5)CC4)cn3)nc2n(C2CCCC2)c1=O (stereo not drawn) :: inactive
CC(=O)c1c(C)c2cnc(Nc3ccc(N4CCN(CC(=O)NCCSSCCN(CC(=O)Nc5cccc6c5C(=O)N(C5CCC(=O)NC5=O)C6=O)C(=O)CCCCC(=O)N5CCC(c6cc(OC(C)C)c(Nc7ncc(Cl)c(Nc8ccccc8S(=O)(=O)C(C)C)n7)cc6C)CC5)CC4)cn3)nc2n(C2CCCC2)c1=O (stereo not drawn) :: inactive
CC(=O)c1c(C)c2cnc(Nc3ccc(N4CCN(CC(=O)NCCSSCCN(CC(=O)NCCNc5cccc6c5C(=O)N(C5CCC(=O)NC5=O)C6=O)C(=O)CCCCCCC(=O)N5CCC(c6cc(OC(C)C)c(Nc7ncc(Cl)c(Nc8ccccc8S(=O)(=O)C(C)C)n7)cc6C)CC5)CC4)cn3)nc2n(C2CCCC2)c1=O (stereo not drawn) :: inactive

// provenance: ChEMBL document CHEMBL5321200
